Hello, the source for this data is paper PMC9838217, in case you need it.

Documented binding signal across a set of sequences
- tested.system: SALL4 ZFC4 R900W (HT-SELEX) (Mus musculus, UniProt Q8BX22 870-940, R900W)
- Sequence: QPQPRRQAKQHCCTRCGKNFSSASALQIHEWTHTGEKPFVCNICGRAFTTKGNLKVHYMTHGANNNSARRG
- assay.protocol: HT-SELEX; high values mean tight binding
- experimental.conditions: protein: recombinant; vector His6-GST; dsDNA, one strand shown
measured.metric: binding signal

[[record]]
biosequence = "TACACA"
value_observed = "1.3 fold-change vs cycle 0"

[[record]]
biosequence = "AGATGG"
value_observed = "0.933 fold-change vs cycle 0"

[[record]]
biosequence = "ACACAG"
value_observed = "0.835 fold-change vs cycle 0"


---

- tested.system: SALL4 ZFC4 R900W (HT-SELEX) (Mus musculus, UniProt Q8BX22 870-940, R900W)
- Sequence: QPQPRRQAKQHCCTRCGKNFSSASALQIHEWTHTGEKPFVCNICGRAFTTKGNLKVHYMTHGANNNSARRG
- assay.protocol: HT-SELEX; high values mean tight binding
- experimental.conditions: protein: recombinant; vector His6-GST; dsDNA, one strand shown
Rule: Criterion met for binding signal not less than 0.7 fold-change vs cycle 0, Criterion not met for anything less.

[[record]]
biosequence = "TTCGAA"
group_label = "Criterion met"

[[record]]
biosequence = "AGCGTC"
group_label = "Criterion not met"

[[record]]
biosequence = "CCGAGG"
group_label = "Criterion not met"

[[record]]
biosequence = "CTCGTA"
group_label = "Criterion met"

[[record]]
biosequence = "CGACCC"
group_label = "Criterion not met"

[[record]]
biosequence = "TATCAA"
group_label = "Criterion met"

[[record]]
biosequence = "AACGAT"
group_label = "Criterion met"

[[record]]
biosequence = "GCGTCA"
group_label = "Criterion not met"

[[record]]
biosequence = "CTGAGA"
group_label = "Criterion met"

[[record]]
biosequence = "ACAACA"
group_label = "Criterion met"

[[record]]
biosequence = "CTTGGA"
group_label = "Criterion met"

[[record]]
biosequence = "AACGAC"
group_label = "Criterion not met"

[[record]]
biosequence = "CGGTAA"
group_label = "Criterion met"

[[record]]
biosequence = "CGGCGA"
group_label = "Criterion not met"

[[record]]
biosequence = "GCTAAA"
group_label = "Criterion met"

[[record]]
biosequence = "ATACGA"
group_label = "Criterion met"

[[record]]
biosequence = "CAACTG"
group_label = "Criterion met"

[[record]]
biosequence = "AATAGA"
group_label = "Criterion met"

[[record]]
biosequence = "CGTACC"
group_label = "Criterion not met"

[[record]]
biosequence = "AGCTTG"
group_label = "Criterion met"

[[record]]
biosequence = "ACCACT"
group_label = "Criterion met"

[[record]]
biosequence = "ATGAGG"
group_label = "Criterion met"

[[record]]
biosequence = "ACCTAA"
group_label = "Criterion met"


---

- tested.system: SALL4 ZFC4 WT (HT-SELEX) (Mus musculus, UniProt Q8BX22 870-940)
- Sequence: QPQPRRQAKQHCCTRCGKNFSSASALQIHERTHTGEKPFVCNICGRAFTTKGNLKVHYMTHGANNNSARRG
- assay.protocol: HT-SELEX; high values mean tight binding
- experimental.conditions: protein: recombinant; vector His6-GST; dsDNA, one strand shown
Consider the following sequences and their measured log10 binding signal readings.
measured.metric: log10 binding signal (log10 of the value in fold-change vs cycle 0)

[[record]]
biosequence = "CTATTC"
tested_system = "SALL4 ZFC4 WT (HT-SELEX) (Mus musculus, UniProt Q8BX22 870-940)"
measured_metric = "log10 binding signal"
value_observed = 0.11

[[record]]
biosequence = "GTACCA"
tested_system = "SALL4 ZFC4 WT (HT-SELEX) (Mus musculus, UniProt Q8BX22 870-940)"
measured_metric = "log10 binding signal"
value_observed = -0.12

[[record]]
biosequence = "AGCATC"
tested_system = "SALL4 ZFC4 WT (HT-SELEX) (Mus musculus, UniProt Q8BX22 870-940)"
measured_metric = "log10 binding signal"
value_observed = -0.15

[[record]]
biosequence = "ATATGC"
tested_system = "SALL4 ZFC4 WT (HT-SELEX) (Mus musculus, UniProt Q8BX22 870-940)"
measured_metric = "log10 binding signal"
value_observed = 0.07

[[record]]
biosequence = "AAGTCT"
tested_system = "SALL4 ZFC4 WT (HT-SELEX) (Mus musculus, UniProt Q8BX22 870-940)"
measured_metric = "log10 binding signal"
value_observed = 0.10

[[record]]
biosequence = "AGATCG"
tested_system = "SALL4 ZFC4 WT (HT-SELEX) (Mus musculus, UniProt Q8BX22 870-940)"
measured_metric = "log10 binding signal"
value_observed = -0.17

[[record]]
biosequence = "CCTATC"
tested_system = "SALL4 ZFC4 WT (HT-SELEX) (Mus musculus, UniProt Q8BX22 870-940)"
measured_metric = "log10 binding signal"
value_observed = -0.09

[[record]]
biosequence = "CATTCG"
tested_system = "SALL4 ZFC4 WT (HT-SELEX) (Mus musculus, UniProt Q8BX22 870-940)"
measured_metric = "log10 binding signal"
value_observed = -0.18

[[record]]
biosequence = "ACTGTC"
tested_system = "SALL4 ZFC4 WT (HT-SELEX) (Mus musculus, UniProt Q8BX22 870-940)"
measured_metric = "log10 binding signal"
value_observed = -0.12

[[record]]
biosequence = "CTCACC"
tested_system = "SALL4 ZFC4 WT (HT-SELEX) (Mus musculus, UniProt Q8BX22 870-940)"
measured_metric = "log10 binding signal"
value_observed = -0.31

[[record]]
biosequence = "AAGATA"
tested_system = "SALL4 ZFC4 WT (HT-SELEX) (Mus musculus, UniProt Q8BX22 870-940)"
measured_metric = "log10 binding signal"
value_observed = 0.35

[[record]]
biosequence = "AGGGAG"
tested_system = "SALL4 ZFC4 WT (HT-SELEX) (Mus musculus, UniProt Q8BX22 870-940)"
measured_metric = "log10 binding signal"
value_observed = -0.23

[[record]]
biosequence = "ACGAAA"
tested_system = "SALL4 ZFC4 WT (HT-SELEX) (Mus musculus, UniProt Q8BX22 870-940)"
measured_metric = "log10 binding signal"
value_observed = 0.02

[[record]]
biosequence = "ACGGAA"
tested_system = "SALL4 ZFC4 WT (HT-SELEX) (Mus musculus, UniProt Q8BX22 870-940)"
measured_metric = "log10 binding signal"
value_observed = -0.15

[[record]]
biosequence = "ATGACC"
tested_system = "SALL4 ZFC4 WT (HT-SELEX) (Mus musculus, UniProt Q8BX22 870-940)"
measured_metric = "log10 binding signal"
value_observed = -0.09

[[record]]
biosequence = "ACATCT"
tested_system = "SALL4 ZFC4 WT (HT-SELEX) (Mus musculus, UniProt Q8BX22 870-940)"
measured_metric = "log10 binding signal"
value_observed = 0.13

[[record]]
biosequence = "TGAAAA"
tested_system = "SALL4 ZFC4 WT (HT-SELEX) (Mus musculus, UniProt Q8BX22 870-940)"
measured_metric = "log10 binding signal"
value_observed = 0.31

[[record]]
biosequence = "AAAGGC"
tested_system = "SALL4 ZFC4 WT (HT-SELEX) (Mus musculus, UniProt Q8BX22 870-940)"
measured_metric = "log10 binding signal"
value_observed = -0.32

[[record]]
biosequence = "ACCCTA"
tested_system = "SALL4 ZFC4 WT (HT-SELEX) (Mus musculus, UniProt Q8BX22 870-940)"
measured_metric = "log10 binding signal"
value_observed = -0.06

[[record]]
biosequence = "AAATCA"
tested_system = "SALL4 ZFC4 WT (HT-SELEX) (Mus musculus, UniProt Q8BX22 870-940)"
measured_metric = "log10 binding signal"
value_observed = 0.30

[[record]]
biosequence = "AAGAAT"
tested_system = "SALL4 ZFC4 WT (HT-SELEX) (Mus musculus, UniProt Q8BX22 870-940)"
measured_metric = "log10 binding signal"
value_observed = 0.33

[[record]]
biosequence = "GAAAGA"
tested_system = "SALL4 ZFC4 WT (HT-SELEX) (Mus musculus, UniProt Q8BX22 870-940)"
measured_metric = "log10 binding signal"
value_observed = 0.12

[[record]]
biosequence = "CCAATA"
tested_system = "SALL4 ZFC4 WT (HT-SELEX) (Mus musculus, UniProt Q8BX22 870-940)"
measured_metric = "log10 binding signal"
value_observed = 0.09

[[record]]
biosequence = "ATCCCA"
tested_system = "SALL4 ZFC4 WT (HT-SELEX) (Mus musculus, UniProt Q8BX22 870-940)"
measured_metric = "log10 binding signal"
value_observed = -0.05

[[record]]
biosequence = "ACTCGG"
tested_system = "SALL4 ZFC4 WT (HT-SELEX) (Mus musculus, UniProt Q8BX22 870-940)"
measured_metric = "log10 binding signal"
value_observed = -0.40

[[record]]
biosequence = "GGTAAC"
tested_system = "SALL4 ZFC4 WT (HT-SELEX) (Mus musculus, UniProt Q8BX22 870-940)"
measured_metric = "log10 binding signal"
value_observed = -0.03

[[record]]
biosequence = "AATAAA"
tested_system = "SALL4 ZFC4 WT (HT-SELEX) (Mus musculus, UniProt Q8BX22 870-940)"
measured_metric = "log10 binding signal"
value_observed = 0.57

[[record]]
biosequence = "ATTTAG"
tested_system = "SALL4 ZFC4 WT (HT-SELEX) (Mus musculus, UniProt Q8BX22 870-940)"
measured_metric = "log10 binding signal"
value_observed = 0.25

[[record]]
biosequence = "ATACCC"
tested_system = "SALL4 ZFC4 WT (HT-SELEX) (Mus musculus, UniProt Q8BX22 870-940)"
measured_metric = "log10 binding signal"
value_observed = -0.07

[[record]]
biosequence = "ATCTTC"
tested_system = "SALL4 ZFC4 WT (HT-SELEX) (Mus musculus, UniProt Q8BX22 870-940)"
measured_metric = "log10 binding signal"
value_observed = 0.15

[[record]]
biosequence = "CACGAC"
tested_system = "SALL4 ZFC4 WT (HT-SELEX) (Mus musculus, UniProt Q8BX22 870-940)"
measured_metric = "log10 binding signal"
value_observed = -0.52

[[record]]
biosequence = "ACAAGC"
tested_system = "SALL4 ZFC4 WT (HT-SELEX) (Mus musculus, UniProt Q8BX22 870-940)"
measured_metric = "log10 binding signal"
value_observed = -0.21

[[record]]
biosequence = "CTCCGA"
tested_system = "SALL4 ZFC4 WT (HT-SELEX) (Mus musculus, UniProt Q8BX22 870-940)"
measured_metric = "log10 binding signal"
value_observed = -0.42

[[record]]
biosequence = "GCCTGA"
tested_system = "SALL4 ZFC4 WT (HT-SELEX) (Mus musculus, UniProt Q8BX22 870-940)"
measured_metric = "log10 binding signal"
value_observed = -0.52

